Where do the numbers come from? From ChEMBL document CHEMBL1201862.

# System: OVCAR-8
# method: NCI tumour cell line growth inhibition, 48 h
The source made the active and inactive calls. Cut-off read from the data, not from the text of the source: active = GI50 up to about 1.1 µM and inactive = higher.
outcome.measure: GI50

O=C(N/N=C\c1ccc([N+](=O)[O-])cc1)c1ccccc1Nc1ccccc1C(=O)N/N=C/c1ccc([N+](=O)[O-])cc1 ... > 100 µM (inactive)
O=C1/C(=C\c2ccccc2)C(NC2CCCCC2)c2ccccc21 (stereo unspecified) ... 2.12 µM (inactive)

Prompt: Which GI50 is listed for O=c1c2ccccc2nc(-c2ccccc2)n1NC1OC(CO)C(O)C(O)C1O (stereo unspecified) ?
Response: > 100 µM (inactive)

Prompt: Which GI50 is listed for `O=C1CC(c2ccc[nH]2)=NN1c1ccccc1` ?
Response: > 100 µM (inactive)

Prompt: Which GI50 is listed for `CC(=O)c1c(C)n(C)c2c1nnc1ccccc12` ?
Response: 43.5 µM (inactive)

Prompt: Which GI50 is listed for `O=C1C2=Cc3ccccc3CCN2c2ccccc21` ?
Response: 23.6 µM (inactive)

Prompt: Which GI50 is listed for `COc1cc2c(cc1OC)C(=O)/C(=C/c1ccc([N+](=O)[O-])cc1)CC2` ?
Response: > 10 µM (inactive)

Prompt: Which GI50 is listed for `COCC[N+](CCNC(=O)c1cccc2c(N)c3cccc(C)c3nc12)(CCOC)Cc1ccc([N+](=O)[O-])cc1` ?
Response: 26.6 µM (inactive)

Prompt: Which GI50 is listed for `COc1c(C)c(C/C=C(\C)CCCCO)c(OC)c2ccccc12` ?
Response: 33.1 µM (inactive)

Prompt: Which GI50 is listed for `CCOC(=S)SCC(=O)O` ?
Response: > 100 µM (inactive)

Prompt: Which GI50 is listed for `CCOC(=O)c1c2cccccc2n2c(=O)cc(C)nc12` ?
Response: > 100 µM (inactive)

---

Recorded GI50 for the following molecules
# Tested on: CAKI-1
# method: NCI tumour cell line growth inhibition, 48 h
Activity calls are given as the source filed them. Rule as the data show it: active = GI50 up to about 1.1 µM and inactive = higher.

In the examples that follow, each entry is paired with its recorded GI50.
CC(C)CC(N)C(=O)OCN1C(=O)C2C3C=CC(C2C1=O)C1C2C(=O)N(COC(=O)C(N)CC(C)C)C(=O)C2C31 (centres undefined) ... > 100 µM (inactive)
Cc1cccc(C)c1NC(=O)C(C#N)C1=C(Cl)C(=O)c2ccccc2C1=O (centres undefined) ... 18.5 µM (inactive)
COC(=O)/C=C/[C@H]1[C@H](C)N1S(=O)(=O)c1ccc(C)cc1 (some centres undefined) ... > 100 µM (inactive)

Prompt: Which GI50 is listed for `COc1ccc(OC)c(NC(=O)C(=O)NNC(=O)c2sc(NNC(C)=O)nc2C)c1` ?
Response: 41.3 µM (inactive)

Prompt: Which GI50 is listed for `CC1(C)CC(=O)c2c(nc(SSc3nc4c(c(-c5ccccc5)c3C#N)C(=O)CC(C)(C)C4)c(C#N)c2-c2ccccc2)C1` ?
Response: > 10 µM (inactive)

---

# Tested on: NCI-H460
# method: NCI tumour cell line growth inhibition, 48 h
The source made the active and inactive calls. No stated cut-off is given here; in the data, active = GI50 up to about 1.1 µM and inactive = higher.
outcome.measure: GI50

In the examples that follow, each entry is paired with its recorded GI50.
COc1ccccc1N1C(=O)CS(=O)(=O)C1c1cccc(Oc2ccccc2)c1 (stereo unspecified) ... 15.2 µM (inactive)
Nc1ccc(-c2nc3ccccc3s2)cc1CO ... 68.4 µM (inactive)
CC(C)=CCC(OC(=O)C=C(C)C)c1cc(O)c2c(c1O)C(=O)C=CC2=O (stereo unspecified) ... 2.75 µM (inactive)

Prompt: Return GI50 measured with NCI-H460 given this compound: N#CC1([N+](=O)[O-])C=C1c1ccccc1 (stereo unspecified)
Response: 51.2 µM (inactive)

Prompt: Return GI50 measured with NCI-H460 given this compound: Cc1cccc2c1[C@]13OC(C)[C@]4(C)CC5OC(=O)[C@@]1(C)[C@@H]5[C@]34C(=O)O2 (stereo partly specified)
Response: > 100 µM (inactive)
